# Tested on: U251 CNS
# Test protocol: NCI tumour cell line growth inhibition, 48 h
A collection of compounds and their measured TGI
Reported property: TGI

C[C@]12CCCC(=O)C1C[C@H](C(=O)O)CC2 (stereo partly specified) = > 100 µM
CCOc1ccc2c(c1)NC(=O)C(C1OC(c3ccccc3)=CC1=O)S2 (stereo unspecified) = 49.2 µM
O=C1c2ccccc2C(=O)c2c(NC(=O)c3ccc4c5c(ncnc35)-c3ccccc3C4=O)cccc21 = > 100 µM
COc1ccc(/C(Cl)=C/c2ccc(Cl)c(Cl)c2)cc1 = 50.4 µM
O=C1CCC(=O)C(C(=O)CCC(=O)Nc2cccc(Cl)c2)C1 (stereo unspecified) = > 100 µM
Cc1cc2nc3c4ccccc4n(CCN(C)C)c3nc2cc1C = 11.3 µM
CS(=O)(=O)c1nc(Cl)c(Cl)c(C#N)c1Cl = 11.7 µM
COC(=O)CNC(=O)Nc1cc(N2C(=O)ON3C2C(C)(C)N(O)C3(C)C)ccc1C (stereo unspecified) = > 100 µM
CCCCCCCCCC(=O)CC(=O)c1c(O)cc(O)cc1O = > 75 µM
NC(=O)CCC(NC(=O)C(F)(F)F)C(=O)O (stereo unspecified) = > 100 µM
N#CC(c1ccccc1)(c1ccccc1)[C@@H](c1ccccc1)[C@H](Cc1ccccc1)NS(=O)(=O)c1ccccc1 = > 100 µM
